Here, compounds appear alongside Ki reported for Carbonic anhydrase 12 (Homo sapiens) in the literature.

Examples with their reported Ki follow.
Request: Form field - read-out: Ki; system: Carbonic anhydrase 12 (Homo sapiens); submitted item: C/C(=N\NC(N)=S)c1nnn(-c2ccc(C(=O)O)cc2)c1C
Sequence (O43570 whole entry): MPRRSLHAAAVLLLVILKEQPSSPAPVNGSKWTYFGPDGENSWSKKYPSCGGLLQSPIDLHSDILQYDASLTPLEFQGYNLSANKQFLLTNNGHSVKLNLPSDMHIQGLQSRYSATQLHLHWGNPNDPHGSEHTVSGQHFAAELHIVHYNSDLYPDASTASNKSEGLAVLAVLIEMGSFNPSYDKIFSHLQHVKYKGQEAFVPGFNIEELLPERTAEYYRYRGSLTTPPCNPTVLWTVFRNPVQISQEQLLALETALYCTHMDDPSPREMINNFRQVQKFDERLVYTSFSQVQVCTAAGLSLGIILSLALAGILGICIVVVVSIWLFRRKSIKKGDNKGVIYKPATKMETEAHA
Result: > 100 µM

Request: # query: Ki | item COc1ccc(C(=O)Nc2ccc(-c3cn4c(=O)n(-c5ccccc5)nc4c(N)n3)cc2)cc1OC | system: Carbonic anhydrase 12 (Homo sapiens)
Result: > 100 µM

Request: Find the measured Ki: item COc1cccc(C=O)c1OCc1cn(CCCOc2ccc3ccc(=O)oc3c2)nn1 , target or system Carbonic anhydrase 12 (Homo sapiens).
Result: > 10 µM

Let us move to another entry and its Ki.
Request: Recall the recorded Ki for COC(=O)c1cccc(NC(=O)N/C=C/C=C/c2ccc3c(c2)OCO3)c1 with Carbonic anhydrase 12 (Homo sapiens) and state it.
Result: > 100 µM
